- Tested on: cellules tumorales mammaires MCF-7
- Assay overview: Anti-proliferative activity on growth of MCF-7 mammary tumour cells (DNA assay with DABA)
- Type: cell-based
- Recorded conditions: Homo sapiens, MCF7, 144 h, read-out: CI50 (concentration qui inhibe de 50 % la croissance des cellules MCF7)
Recorded metric: IC50 (nM)

Compound	Recorded metric	Result unit	Result
CN(CC(F)(F)C(F)(F)C(F)(F)F)C(=O)CCCCCCCOc1ccc([C@H]2C[C@]3(C)[C@@H](O)CC[C@H]3[C@@H]3CCc4cc(O)ccc4[C@H]32)cc1 [Exemple 5]	IC50	nM	0.02

---

- Test target: récepteur estrogène de l'utérus de souris (Mus musculus, UniProt P19785)
- Construct: les utérus sont prélevés puis homogénéisés a 0°C; from tissue; host or cells: uterus of immature female mice (18-21 days), cytosol (105 000 g supernatant)
- Sequence (P19785 1-599): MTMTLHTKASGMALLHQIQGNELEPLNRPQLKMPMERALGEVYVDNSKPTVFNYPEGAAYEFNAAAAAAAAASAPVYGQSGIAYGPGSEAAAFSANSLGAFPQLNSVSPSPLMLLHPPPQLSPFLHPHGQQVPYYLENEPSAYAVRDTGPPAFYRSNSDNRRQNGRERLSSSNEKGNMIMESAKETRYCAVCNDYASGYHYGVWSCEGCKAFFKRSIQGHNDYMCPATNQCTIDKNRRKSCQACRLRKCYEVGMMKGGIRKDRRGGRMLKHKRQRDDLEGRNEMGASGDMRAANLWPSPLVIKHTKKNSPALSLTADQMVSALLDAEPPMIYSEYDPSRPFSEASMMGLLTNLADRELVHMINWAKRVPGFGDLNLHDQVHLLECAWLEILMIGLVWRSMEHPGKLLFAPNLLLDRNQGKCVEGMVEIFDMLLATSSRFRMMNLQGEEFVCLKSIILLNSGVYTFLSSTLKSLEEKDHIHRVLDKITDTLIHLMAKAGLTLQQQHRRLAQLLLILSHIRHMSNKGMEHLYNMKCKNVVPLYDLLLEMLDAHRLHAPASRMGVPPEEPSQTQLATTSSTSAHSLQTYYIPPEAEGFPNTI
- Assay overview: Relative binding affinity (ARL) for the estrogen receptor, mouse uterus cytosol, displacement of tritiated estradiol
- Recorded conditions: ARL = 100 (CH)/(CX), estradiol = 100; incubation 5H (second time); head prints 0°C
Recorded metric: Récepteurs Oestrogène Temps d'incubation à 0°C 5H (affinité relative de liaison, ARL)

>>> df
                  compound_structure_string  result
0  C#C[C@]1(O)CC[C@H]2[C@@H]3CCc4cc(O)ccc4[C@H]3[C@@H](CCCCCCCCOCC(=O)N(C)C(C)C)C[C@@]21C      47
1  CCCCN(C)C(=S)CSCCCCCOc1ccc([C@H]2C[C@]3(C)[C@@H](O)CC[C@H]3[C@@H]3CCc4cc(O)ccc4[C@H]32)cc1      16
2  CCCCN(C)C(=S)CCCCCCCOc1ccc([C@H]2C[C@]3(C)[C@@H](O)CC[C@H]3[C@@H]3CCc4cc(O)ccc4[C@H]32)cc1      16
3  CN(CC(F)(F)C(F)(F)C(F)(F)F)C(=O)CCCCCCCOc1ccc([C@H]2C[C@]3(C)[C@@H](O)CC[C@H]3[C@@H]3CCc4cc(O)ccc4[C@H]32)cc1      23
4  CCCCN(C)C(=O)COCCCCCCOc1ccc([C@H]2C[C@]3(C)[C@@H](O)CC[C@H]3[C@@H]3CCc4cc(O)ccc4[C@H]32)cc1      29
5  CCCCN(C)C(=S)COCCCCCOc1ccc([C@H]2C[C@]3(C)[C@@H](O)CC[C@H]3[C@@H]3CCc4cc(O)ccc4[C@H]32)cc1      20

Measured values drawn from patent EP0471612B1 for this set.
